target: SMARCA4 (Homo sapiens, UniProt P51532); construct: SMARCA4-HiBiT knock-in Hela monoclonal cell (CS3023226) were purchased from Promega; host or cells: HeLa (CRISPR HiBiT knock-in monoclonal line, heterozygous); assay: SMARCA4 HiBiT degradation assay in HeLa cells; assay type: cell-based; settings: 18 hours
Sequence (P51532 whole entry): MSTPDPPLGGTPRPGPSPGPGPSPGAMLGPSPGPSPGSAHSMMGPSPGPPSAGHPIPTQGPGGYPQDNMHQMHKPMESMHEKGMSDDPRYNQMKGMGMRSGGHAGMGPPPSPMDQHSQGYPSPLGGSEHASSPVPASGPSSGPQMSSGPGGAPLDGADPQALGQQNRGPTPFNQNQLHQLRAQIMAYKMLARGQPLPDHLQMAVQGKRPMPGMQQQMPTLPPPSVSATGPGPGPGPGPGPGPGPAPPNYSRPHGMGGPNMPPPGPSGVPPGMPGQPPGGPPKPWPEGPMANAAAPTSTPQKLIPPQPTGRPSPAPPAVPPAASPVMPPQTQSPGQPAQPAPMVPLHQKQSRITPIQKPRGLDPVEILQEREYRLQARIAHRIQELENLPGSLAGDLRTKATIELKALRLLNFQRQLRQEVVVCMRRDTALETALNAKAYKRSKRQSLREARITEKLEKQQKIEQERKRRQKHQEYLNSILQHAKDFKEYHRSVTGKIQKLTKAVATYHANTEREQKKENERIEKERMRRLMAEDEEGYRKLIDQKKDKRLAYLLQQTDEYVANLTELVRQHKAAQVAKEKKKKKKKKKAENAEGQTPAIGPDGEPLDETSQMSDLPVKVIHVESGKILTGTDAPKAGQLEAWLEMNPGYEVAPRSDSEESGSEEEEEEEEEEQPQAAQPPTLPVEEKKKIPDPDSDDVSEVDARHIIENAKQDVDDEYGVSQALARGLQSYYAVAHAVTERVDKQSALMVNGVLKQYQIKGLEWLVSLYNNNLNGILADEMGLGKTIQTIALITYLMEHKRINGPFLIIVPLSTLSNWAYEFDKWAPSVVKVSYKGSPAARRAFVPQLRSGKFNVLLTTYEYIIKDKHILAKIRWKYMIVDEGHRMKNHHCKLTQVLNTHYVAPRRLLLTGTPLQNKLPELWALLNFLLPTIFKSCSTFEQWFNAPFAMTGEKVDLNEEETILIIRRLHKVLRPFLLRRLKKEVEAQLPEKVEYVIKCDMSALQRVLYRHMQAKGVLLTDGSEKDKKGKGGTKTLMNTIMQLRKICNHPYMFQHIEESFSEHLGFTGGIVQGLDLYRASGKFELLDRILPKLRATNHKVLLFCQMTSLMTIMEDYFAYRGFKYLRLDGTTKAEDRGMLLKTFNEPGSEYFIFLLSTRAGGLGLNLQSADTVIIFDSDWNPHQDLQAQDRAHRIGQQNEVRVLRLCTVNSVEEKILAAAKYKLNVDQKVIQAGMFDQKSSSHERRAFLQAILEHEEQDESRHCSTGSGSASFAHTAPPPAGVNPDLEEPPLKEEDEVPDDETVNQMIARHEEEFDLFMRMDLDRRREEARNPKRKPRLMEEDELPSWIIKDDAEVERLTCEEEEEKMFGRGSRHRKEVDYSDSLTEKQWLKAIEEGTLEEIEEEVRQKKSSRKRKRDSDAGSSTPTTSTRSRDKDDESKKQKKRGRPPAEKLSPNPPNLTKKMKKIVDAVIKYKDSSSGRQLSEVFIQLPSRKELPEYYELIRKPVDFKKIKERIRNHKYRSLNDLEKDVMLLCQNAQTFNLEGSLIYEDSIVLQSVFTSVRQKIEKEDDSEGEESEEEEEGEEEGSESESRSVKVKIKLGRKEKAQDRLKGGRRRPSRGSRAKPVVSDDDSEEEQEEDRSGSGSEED
parameter_measured: DC50

Take a look at these entries with their results.
molecule	measured_on	parameter_measured	data_value
CCC12CNc3nnc(-c4cc(F)cc(F)c4O)cc3N1CCN(C(=O)N1CCN(CC3CCN(c4ccc5c(c4)C(=O)N(C4CCC(=O)NC4=O)C5)CC3)CC1(C)C)C2 (mixture of isomers) [Example 27]	SMARCA4 (Homo sapiens, UniProt P51532)	DC50	< 100 nM
C[C@@H]1CN(CC2CCN(c3ccc4c(c3)C(=O)N([C@H]3CCC(=O)NC3=O)C4)CC2)C[C@@H](C)N1C(=O)N1CCN2c3cc(-c4cccc(F)c4O)nnc3NCC2(C(F)(F)F)C1 (single isomer, unassigned) [Example 97]	SMARCA4 (Homo sapiens, UniProt P51532)	DC50	100 to 1000 nM
CC1(C)CN(CC2CCN(c3ccc4c(c3)C(=O)N([C@H]3CCC(=O)NC3=O)C4)CC2)CCN1C(=O)N1CCN2c3cc(-c4cccc(F)c4O)nnc3NCC2(CF)C1 (single isomer, unassigned) [Example 90]	SMARCA4 (Homo sapiens, UniProt P51532)	DC50	> 1000 nM
C[C@@H]1CN(CC2CCN(c3ccc4c(c3)C(=O)N(C3CCC(=O)NC3=O)C4)CC2)C[C@H](C)N1C(=O)N1CCN2c3cc(-c4cc(F)cc(F)c4O)nnc3NC[C@H]2C1 (some centres unmarked) [Example 15]	SMARCA4 (Homo sapiens, UniProt P51532)	DC50	< 100 nM

We next turn to a different molecule, shown below.
Prompt line: Quick one: DC50 for CC1(C)CC(CN2CCN(c3ccc4c(c3)C(=O)N([C@H]3CCC(=O)NC3=O)C4)CC2)CCN1C(=O)N1CCN2c3cc(-c4cccc(F)c4O)nnc3NCC2(C)C1 (single isomer, unassigned) [Example 123] ?
Response line: < 100 nM

###

Measured DC50, listed per entry.
target: SMARCA4 (Homo sapiens, UniProt P51532); construct: SMARCA4-HiBiT knock-in Hela monoclonal cell (CS3023226) were purchased from Promega; host or cells: HeLa (CRISPR HiBiT knock-in monoclonal line, heterozygous); assay: SMARCA4 HiBiT degradation assay in HeLa cells; assay type: cell-based; conditions: 18 hours

Take a look at these entries with their results.
molecule	DC50
COCC12CNc3nnc(-c4cccc(F)c4O)cc3N1CCN(C(=O)N1CCN(CC3CCN(c4ccc5c(c4)C(=O)N([C@H]4CCC(=O)NC4=O)C5)CC3)CC1(C)C)C2 (single isomer, unassigned) [Example 93]	> 1000 nM
O=C1CCC(N2Cc3ccc(N4CCOC(CN5CC6C(C5)C6CN5CCN6c7cc(-c8cc(F)cc(F)c8O)nnc7NCC6C5)C4)cc3C2=O)C(=O)N1 (stereo not drawn) [Example 49]	< 100 nM

We next turn to a different molecule, shown below.
Prompt line: Quick one: DC50 for CCC12CNc3nnc(-c4cccc(F)c4O)cc3N1CCN(C(=O)N1[C@H](C)CN(CC3CCN(c4ccc5c(c4)C(=O)N(C4CCC(=O)NC4=O)C5)CC3)C[C@@H]1C)C2 (single isomer, unassigned) [Example 60] ?
Response line: < 100 nM
